- METHOD SUMMARY: Degradation of the active stereoisomer S,S at 25° C. and 65% R.H.
- Format: physicochemical
- EXPERIMENTAL SETUP: T = 0
Readings of percentage of the active S,S stereoisomer remaining for the listed compounds
PROPERTY NAME: percentage of the active S,S stereoisomer remaining (%)

COMPOUND | ASSAY RESULT
C[S+](CCC(N)C(=O)[O-])C[C@H]1O[C@@H](n2cnc3c(N)ncnc32)[C@H](O)[C@@H]1O.C[S+](CCC(N)C(=O)[O-])C[C@H]1O[C@@H](n2cnc3c(N)ncnc32)[C@H](O)[C@@H]1O.Cl.O=S(=O)([O-])[O-].[Mg+2] (stereo partly shown) [SAMe•0.5HCl•0.5MgSO4] | 98.9
C[S+](CCC(N)C(=O)[O-])C[C@H]1O[C@@H](n2cnc3c(N)ncnc32)[C@H](O)[C@@H]1O.Cl.Cl.O=S(=O)([O-])[O-].[Mg+2] (stereo partly shown) [SAMe•2.0HCl•1.0MgSO4] | 98.0
C[S+](CCC(N)C(=O)[O-])C[C@H]1O[C@@H](n2cnc3c(N)ncnc32)[C@H](O)[C@@H]1O.C[S+](CCC(N)C(=O)[O-])C[C@H]1O[C@@H](n2cnc3c(N)ncnc32)[C@H](O)[C@@H]1O.O=S(=O)(O)O.O=S(=O)([O-])[O-].[Mg+2] (stereo partly shown) | 98.2
C[S+](CCC(N)C(=O)[O-])C[C@H]1O[C@@H](n2cnc3c(N)ncnc32)[C@H](O)[C@@H]1O.O=S(=O)(O)O.O=S(=O)(O)O.[Ca+2].[Cl-].[Cl-] (stereo partly shown) | 97.2
C[S+](CCC(N)C(=O)[O-])C[C@H]1O[C@@H](n2cnc3c(N)ncnc32)[C@H](O)[C@@H]1O.C[S+](CCC(N)C(=O)[O-])C[C@H]1O[C@@H](n2cnc3c(N)ncnc32)[C@H](O)[C@@H]1O.Cl.[Cl-].[Cl-].[Mg+2] (stereo partly shown) [SAMe•0.5HCl•0.5MgCl2] | 98.9
C[S+](CCC(N)C(=O)[O-])C[C@H]1O[C@@H](n2cnc3c(N)ncnc32)[C@H](O)[C@@H]1O.O=S(=O)(O)O.O=S(=O)(O)O.O=S(=O)([O-])[O-].[Mg+2] (stereo partly shown) | 97.5
C[S+](CCC(N)C(=O)[O-])C[C@H]1O[C@@H](n2cnc3c(N)ncnc32)[C@H](O)[C@@H]1O.Cl.Cl.[Cl-].[Cl-].[Mg+2] (stereo partly shown) [SAMe•2.0HCl•1.0MgCl2] | 97.4
C[S+](CCC(N)C(=O)[O-])C[C@H]1O[C@@H](n2cnc3c(N)ncnc32)[C@H](O)[C@@H]1O.C[S+](CCC(N)C(=O)[O-])C[C@H]1O[C@@H](n2cnc3c(N)ncnc32)[C@H](O)[C@@H]1O.O=S(=O)(O)O.[Ca+2].[Cl-].[Cl-] (stereo partly shown) | 98.2
C[S+](CCC(N)C(=O)[O-])C[C@H]1O[C@@H](n2cnc3c(N)ncnc32)[C@H](O)[C@@H]1O.O=S(=O)(O)O.O=S(=O)(O)O.[Cl-].[Cl-].[Mg+2] (stereo partly shown) | 97.2
C[S+](CCC(N)C(=O)[O-])C[C@H]1O[C@@H](n2cnc3c(N)ncnc32)[C@H](O)[C@@H]1O.C[S+](CCC(N)C(=O)[O-])C[C@H]1O[C@@H](n2cnc3c(N)ncnc32)[C@H](O)[C@@H]1O.O=S(=O)(O)O.[Cl-].[Cl-].[Mg+2] (stereo partly shown) | 98.2

* * *

Readings of stability test percentage value (active ingredient %), 30 days for the listed compounds
- METHOD SUMMARY: Stability test in thermostated heaters at 40° C. and 75% R.H., active ingredient %
- Assay type: physicochemical
- EXPERIMENTAL SETUP: heat-sealed aluminium/aluminium bags, 30 days
PROPERTY NAME: stability test percentage value (active ingredient %), 30 days

COMPOUND | VALUE UNITS | ASSAY RESULT
C[S+](CCC(N)C(=O)[O-])C[C@H]1O[C@@H](n2cnc3c(N)ncnc32)[C@H](O)[C@@H]1O.C[S+](CCC(N)C(=O)[O-])C[C@H]1O[C@@H](n2cnc3c(N)ncnc32)[C@H](O)[C@@H]1O.O=S(=O)(O)O.[Cl-].[Cl-].[Mg+2] (stereo partly shown) | % | 0.36
C[S+](CCC(N)C(=O)[O-])C[C@H]1O[C@@H](n2cnc3c(N)ncnc32)[C@H](O)[C@@H]1O.Cl.Cl.[Cl-].[Cl-].[Mg+2] (stereo partly shown) [SAMe•2.0HCl•1.0MgCl2] | % | 0.27
C[S+](CCC(N)C(=O)[O-])C[C@H]1O[C@@H](n2cnc3c(N)ncnc32)[C@H](O)[C@@H]1O.O=S(=O)(O)O.O=S(=O)(O)O.[Cl-].[Cl-].[Mg+2] (stereo partly shown) | % | 0.19
C[S+](CCC(N)C(=O)[O-])C[C@H]1O[C@@H](n2cnc3c(N)ncnc32)[C@H](O)[C@@H]1O.Cl.Cl.O=S(=O)([O-])[O-].[Mg+2] (stereo partly shown) [SAMe•2.0HCl•1.0MgSO4] | % | 0.27
C[S+](CCC(N)C(=O)[O-])C[C@H]1O[C@@H](n2cnc3c(N)ncnc32)[C@H](O)[C@@H]1O.C[S+](CCC(N)C(=O)[O-])C[C@H]1O[C@@H](n2cnc3c(N)ncnc32)[C@H](O)[C@@H]1O.Cl.O=S(=O)([O-])[O-].[Mg+2] (stereo partly shown) [SAMe•0.5HCl•0.5MgSO4] | % | 0.48
C[S+](CCC(N)C(=O)[O-])C[C@H]1O[C@@H](n2cnc3c(N)ncnc32)[C@H](O)[C@@H]1O.C[S+](CCC(N)C(=O)[O-])C[C@H]1O[C@@H](n2cnc3c(N)ncnc32)[C@H](O)[C@@H]1O.Cl.[Cl-].[Cl-].[Mg+2] (stereo partly shown) [SAMe•0.5HCl•0.5MgCl2] | % | 0.56
C[S+](CCC(N)C(=O)[O-])C[C@H]1O[C@@H](n2cnc3c(N)ncnc32)[C@H](O)[C@@H]1O.O=S(=O)(O)O.O=S(=O)(O)O.[Ca+2].[Cl-].[Cl-] (stereo partly shown) | % | 0.17
C[S+](CCC(N)C(=O)[O-])C[C@H]1O[C@@H](n2cnc3c(N)ncnc32)[C@H](O)[C@@H]1O.C[S+](CCC(N)C(=O)[O-])C[C@H]1O[C@@H](n2cnc3c(N)ncnc32)[C@H](O)[C@@H]1O.O=S(=O)(O)O.[Ca+2].[Cl-].[Cl-] (stereo partly shown) | % | 0.48
C[S+](CCC(N)C(=O)[O-])C[C@H]1O[C@@H](n2cnc3c(N)ncnc32)[C@H](O)[C@@H]1O.C[S+](CCC(N)C(=O)[O-])C[C@H]1O[C@@H](n2cnc3c(N)ncnc32)[C@H](O)[C@@H]1O.O=S(=O)(O)O.O=S(=O)([O-])[O-].[Mg+2] (stereo partly shown) | % | 0.57
C[S+](CCC(N)C(=O)[O-])C[C@H]1O[C@@H](n2cnc3c(N)ncnc32)[C@H](O)[C@@H]1O.O=S(=O)(O)O.O=S(=O)(O)O.O=S(=O)([O-])[O-].[Mg+2] (stereo partly shown) | % | 0.33

* * *

- METHOD SUMMARY: Degradation of the active stereoisomer S,S at 40° C. and 75% R.H.
- Format: physicochemical
- EXPERIMENTAL SETUP: 30 days
PROPERTY NAME: percentage of active S,S stereoisomer remaining (%)

COMPOUND | ASSAY RESULT
C[S+](CCC(N)C(=O)[O-])C[C@H]1O[C@@H](n2cnc3c(N)ncnc32)[C@H](O)[C@@H]1O.O=S(=O)(O)O.O=S(=O)(O)O.[Ca+2].[Cl-].[Cl-] (some centres unmarked) [SAMe•2.0H2SO4•1.0CaCl2] | 89.3
C[S+](CCC(N)C(=O)[O-])C[C@H]1O[C@@H](n2cnc3c(N)ncnc32)[C@H](O)[C@@H]1O.C[S+](CCC(N)C(=O)[O-])C[C@H]1O[C@@H](n2cnc3c(N)ncnc32)[C@H](O)[C@@H]1O.O=S(=O)(O)O.O=S(=O)([O-])[O-].[Mg+2] (some centres unmarked) [SAMe•0.5H2SO4•0.5Mg2SO4•0.4H2O] | 90.8
C[S+](CCC(N)C(=O)[O-])C[C@H]1O[C@@H](n2cnc3c(N)ncnc32)[C@H](O)[C@@H]1O.C[S+](CCC(N)C(=O)[O-])C[C@H]1O[C@@H](n2cnc3c(N)ncnc32)[C@H](O)[C@@H]1O.Cl.O=S(=O)([O-])[O-].[Mg+2] (some centres unmarked) [SAMe•0.5HCl•0.5MgSO4] | 92.8
C[S+](CCC(N)C(=O)[O-])C[C@H]1O[C@@H](n2cnc3c(N)ncnc32)[C@H](O)[C@@H]1O.C[S+](CCC(N)C(=O)[O-])C[C@H]1O[C@@H](n2cnc3c(N)ncnc32)[C@H](O)[C@@H]1O.O=S(=O)(O)O.[Cl-].[Cl-].[Mg+2] (some centres unmarked) [SAMe•0.5H2SO4•0.5MgCl2] | 89.8
C[S+](CCC(N)C(=O)[O-])C[C@H]1O[C@@H](n2cnc3c(N)ncnc32)[C@H](O)[C@@H]1O.C[S+](CCC(N)C(=O)[O-])C[C@H]1O[C@@H](n2cnc3c(N)ncnc32)[C@H](O)[C@@H]1O.Cl.[Cl-].[Cl-].[Mg+2] (some centres unmarked) [SAMe•0.5HCl•0.5MgCl2] | 92.5
